The following molecules are shown together with reported solubility kinetic values.
assay: Kinetic solubility of compound by measuring concentration at pH 7.4 in saturated PBS buffer by UV LCMS/MS using calibration curves. The assay has been performed by Enamine biological services, Bienta Ltd.The protocol is publicly available: dx.doi.org/10.17504/protocols.io.j8nlk8y41l5r/v1; assay type: physicochemical; settings: PBS buffer

{"MOL SMILES": "NCCc1ccc(NC(=O)c2cc(Cl)cc(NC(=O)OCc3ccccc3)c2)cc1", "solubility kinetic": "88 µM"}
{"MOL SMILES": "COCCNC(=O)[C@H](Nc1ccc2c(c1)CNC2)c1cc(Cl)cc(C2CC2)c1", "solubility kinetic": "320 µM"}
{"MOL SMILES": "O=C(O)COc1cccc(NC(=O)c2cc(Cl)cc(NC(=O)OCc3ccccc3)c2)c1", "solubility kinetic": "360 µM"}
{"MOL SMILES": "N#C[C@H](Nc1cccc(-c2nn[nH]n2)c1)c1cc(Cl)cc(NC(=O)OCc2ccccc2)c1", "solubility kinetic": "344 µM"}
{"MOL SMILES": "O=C1Cc2cc(C(=O)Nc3ccc4c(c3)CNC4)ccc2N1", "solubility kinetic": "136 µM"}
